I'd appreciate it if you could supply IC50 values for the items below.
- EXPERIMENTAL_TARGET: NS3-NS4A protease (Hepatitis C virus genotype 1a, UniProt P27958)
- Construct: Recombinant E. coli or Baculovirus full-length NS3 was diluted to 3.33 μM with assay buffer; made in house; host or cells: E. coli or baculovirus (BV) system
- Sequence (P27958 1027-1657): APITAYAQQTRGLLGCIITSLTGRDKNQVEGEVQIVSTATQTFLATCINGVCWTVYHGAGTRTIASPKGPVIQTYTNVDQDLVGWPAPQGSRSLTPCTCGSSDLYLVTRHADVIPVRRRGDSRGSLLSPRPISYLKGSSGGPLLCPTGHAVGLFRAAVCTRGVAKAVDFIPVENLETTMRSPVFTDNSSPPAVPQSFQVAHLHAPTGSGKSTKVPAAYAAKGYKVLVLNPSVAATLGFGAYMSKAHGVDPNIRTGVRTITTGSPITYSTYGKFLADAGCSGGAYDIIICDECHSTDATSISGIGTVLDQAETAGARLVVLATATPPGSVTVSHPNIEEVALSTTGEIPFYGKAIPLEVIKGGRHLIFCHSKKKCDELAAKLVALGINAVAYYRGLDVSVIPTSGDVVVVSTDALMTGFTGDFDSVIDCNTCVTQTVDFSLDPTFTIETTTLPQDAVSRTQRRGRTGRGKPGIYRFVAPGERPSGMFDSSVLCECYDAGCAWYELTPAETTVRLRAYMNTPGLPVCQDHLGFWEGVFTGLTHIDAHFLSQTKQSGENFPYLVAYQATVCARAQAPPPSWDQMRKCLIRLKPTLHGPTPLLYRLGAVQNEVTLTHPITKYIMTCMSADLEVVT
- MEASUREMENT_NOTES: NS3-NS4A protease assay (NS3 inhibition assay, RETS1 substrate), Section B
- Format: biochemical
- EXPERIMENTAL_CONDITIONS: read-out: NS3-NS4A IC50

Query: Given O=C(NC1CCCC1)N[C@H]1CCCCC/C=C\[C@@H]2C[C@@]2(C(=O)NS(=O)(=O)C2CC2)NC(=O)[C@@H]2C[C@@H](OC(=O)N3Cc4ccc(Cl)cc4C3)CN2C1=O , state its recorded IC50.
Reply: < 100 nM

Query: Fill blank: measured IC50 of the molecule O=C(N[C@H]1CCCCC/C=C\[C@@H]2C[C@@]2(C(=O)NS(=O)(=O)C2CC2)NC(=O)[C@@H]2C[C@@H](OC(=O)N3Cc4ccccc4C3)CN2C1=O)O[C@H]1CCOC1 is ____.
Reply: < 100 nM

Query: Please look up its IC50: CC(C)(C)OC(=O)N[C@H]1CCCCC/C=C\[C@@H]2C[C@@]2(C(=O)O)NC(=O)[C@@H]2C[C@@H](OC(=O)N3CCc4cc(C(F)(F)F)ccc4C3)CN2C1=O
Reply: < 10000 nM

Query: Quick one: IC50 for CC(C)(C)OC(=O)N[C@H]1CCCCC/C=C\[C@@H]2C[C@@]2(C(=O)O)NC(=O)[C@@H]2C[C@@H](OC(=O)N3CCc4c([nH]c5ccccc45)C3)CN2C1=O ?
Reply: < 10000 nM

Query: Which IC50 value belongs to CC(C)(C)OC(=O)N[C@H]1CCCCC/C=C\[C@@H]2C[C@@]2(C(=O)NS(=O)(=O)C2CC2)NC(=O)[C@@H]2C[C@@H](OC(=O)N3Cc4ccc(C(=O)O)cc4C3)CN2C1=O ?
Reply: < 100 nM
